System: A498 renal
Assay: NCI-60 one-dose screen, 48 h (100 = growth as untreated, 0 = no growth, -100 = all killed)
Conditions: 10 µM unless noted
About 83,000 compounds went through this panel and 20% of them were active in at least one assay; those are over-represented in the sample as a whole.
Binarize growth at 90%; below is Met, at or above is Not met.

COc1ccc(-c2nc3ccc(Cc4ccc5nc(-c6ccc(OC)cc6)[nH]c5c4)cc3[nH]2)cc1 :: Not met
Fc1ccc(-c2ccnc3nc(-c4ccncc4)nn23)cc1 :: Met
Nc1cccc(S(=O)(=O)c2cccc(N)c2)c1 :: Not met
O=C(c1ccc(C(F)(F)F)c(Cl)c1)N(Cc1ccc(Cl)cc1)c1ccc(-c2cc(C(F)(F)F)[nH]n2)c(O)c1 :: Met

Q: Decide: growth of Cc1cc(C#Cc2ccccc2)ccc1-n1c(/C=C/c2ccc(F)cc2)nc2ccccc2c1=O strictly below 90%?
Result: Not met

Q: Decide: growth of COc1ccc(C2=NN(C=O)C(c3ccc(OS(=O)(=O)c4ccc(C)cc4)c(OC)c3)C2)cc1 (configuration not stated) strictly below 90%?
Result: Met

Q: Decide: growth of COc1ccc(C2=Nn3c(nnc3-c3ccc(Cl)cc3N)SC2)cc1 strictly below 90%?
Result: Not met

Q: Decide: growth of Clc1ccc(Nc2ncnc3c2sc2ncccc23)c(Cl)c1 strictly below 90%?
Result: Met
